- experimentalTarget: P2X7 (Homo sapiens)
- Sequence (Q99572 1-595): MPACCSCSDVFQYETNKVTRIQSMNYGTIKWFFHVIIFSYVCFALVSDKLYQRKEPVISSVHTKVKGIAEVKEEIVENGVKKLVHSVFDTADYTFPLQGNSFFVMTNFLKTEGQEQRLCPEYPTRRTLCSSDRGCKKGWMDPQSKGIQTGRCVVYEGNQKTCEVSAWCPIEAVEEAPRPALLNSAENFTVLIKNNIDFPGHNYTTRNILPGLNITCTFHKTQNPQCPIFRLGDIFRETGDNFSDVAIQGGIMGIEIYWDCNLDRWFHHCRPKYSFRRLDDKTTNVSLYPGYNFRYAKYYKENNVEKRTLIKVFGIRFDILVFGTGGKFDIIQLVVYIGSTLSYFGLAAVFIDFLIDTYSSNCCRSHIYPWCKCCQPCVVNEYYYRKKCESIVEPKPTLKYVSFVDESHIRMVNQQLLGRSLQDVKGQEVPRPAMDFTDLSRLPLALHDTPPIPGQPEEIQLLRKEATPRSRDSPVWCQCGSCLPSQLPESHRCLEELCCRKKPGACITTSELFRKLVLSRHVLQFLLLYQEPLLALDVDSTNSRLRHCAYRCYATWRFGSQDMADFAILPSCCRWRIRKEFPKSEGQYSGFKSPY
- testName: Ca2+ flux (FLIPR) in 1321N1 cells expressing recombinant human P2X7 channel
- Format: cell-based
- Design: expressed in transfected cells; host or cells: 1321N1 cells
- experimentalContext: 250 μM BzATP
readoutLabel: IC50 (nM)

>>> numericreadout("CCc1nnc2n1CCN(C(=O)c1cccc(C(F)(F)F)c1Cl)[C@H]2c1ccccc1 [Example 87]")
3810

I: Cc1nnc2n1CCN(C(=O)c1cccc(C(F)(F)F)c1Cl)[C@H]2c1ccccn1 [Example 92]
II: O=C(c1cccc(Cl)c1Cl)N1CCn2c(nnc2C(F)(F)F)[C@H]1c1ccccc1 [Example 102]
For the pair I and II , which member has the lower IC50 number? Answer = label. II

* * *

- experimentalTarget: P2X7 (Homo sapiens)
- Sequence (Q99572 1-595): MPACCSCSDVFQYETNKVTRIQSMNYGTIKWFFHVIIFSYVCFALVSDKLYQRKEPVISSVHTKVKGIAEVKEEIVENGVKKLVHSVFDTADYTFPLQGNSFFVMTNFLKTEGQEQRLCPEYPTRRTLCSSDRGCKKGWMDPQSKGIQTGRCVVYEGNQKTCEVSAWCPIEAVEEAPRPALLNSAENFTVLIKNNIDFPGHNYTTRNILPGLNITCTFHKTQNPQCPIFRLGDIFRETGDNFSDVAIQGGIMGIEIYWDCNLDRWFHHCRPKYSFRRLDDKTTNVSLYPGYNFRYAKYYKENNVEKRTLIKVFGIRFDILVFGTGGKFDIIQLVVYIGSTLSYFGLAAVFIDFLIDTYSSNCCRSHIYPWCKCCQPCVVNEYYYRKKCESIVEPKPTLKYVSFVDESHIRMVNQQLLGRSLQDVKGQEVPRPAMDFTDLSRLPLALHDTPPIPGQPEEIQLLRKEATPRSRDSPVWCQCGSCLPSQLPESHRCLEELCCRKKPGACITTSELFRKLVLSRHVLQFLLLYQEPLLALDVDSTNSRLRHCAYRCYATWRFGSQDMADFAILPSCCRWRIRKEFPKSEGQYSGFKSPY
- testName: P2X7 antagonism in human PBMCs (IL-1β release, ELISA)
- Assay type: cell-based
- Design: PBMCs were isolated from blood using a Ficoll density gradient technique; endogenous in cells; host or cells: human PBMCs / human whole blood from donors
- experimentalContext: LPS 30 ng/ml + 0.5 mM Bz-ATP, compound 10 μM
readoutLabel: PBMC 10 μM (% control)

A: O=C(c1ccnc(C(F)(F)F)c1Cl)N1CCn2c(nnc2C(F)(F)F)C1c1ccccc1 (single isomer, unassigned) [Example 100]
B: O=C(c1ccc(F)c(C(F)(F)F)c1Cl)N1CCn2c(nnc2C(F)(F)F)C1c1ccccc1 (single isomer, unassigned) [Example 95]
C: O=C(c1ccc(F)c(C(F)(F)F)c1Cl)N1CCn2c(nnc2C(F)(F)F)C1c1ccccc1 (single isomer, unassigned) [Example 96]
D: O=C(c1ccnc(C(F)(F)F)c1Cl)N1CCn2c(nnc2C(F)(F)F)C1c1ccccc1 (single isomer, unassigned) [Example 99]
Please produce an ascending ranking of these compounds based on PBMC 10 μM (% control). Enter labels, ranked according to the request. D, B, C, A
(D: 4.9 % control, B: 8.9 % control, C: 43.6 % control, A: 102.0 % control)
